Assembled from different publications: IC50 for UniProt P48775.

Consider the reported IC50 for these compounds:
Asked: Name the reported IC50 value associated with the compound O=C(CC1c2ccccc2-c2cnnn21)C1CCCCC1 (centres unmarked)
Given back: 10 to 100 µM

Asked: Request the reported IC50 associated with OC(CC1c2ccccc2-c2nncn21)C1CCCCC1 (centres unmarked)
Given back: > 10 µM

Asked: Could you share which IC50 value was measured for Cc1ccc(CN(C(=O)Nc2ccc(C#N)cc2)C2CCCC2)o1 ?
Given back: > 30 µM

Asked: # input compound: O=C(CC1c2ccccc2-c2nncn21)C1CCCCC1 (centres unmarked) ; wanted: its IC50
Given back: > 10 µM

Please examine the following record next.
Asked: Which measured IC50 value corresponds to Cc1ccc(CN(C(=O)Nc2ccc(N3CCOCC3)cc2)C2CCCC2)o1 ?
Given back: > 30 µM
